Value source: patent US20110144128A1

pIC50 values for the compounds below.
# System: human MR (Homo sapiens, UniProt P08235)
pIC50: −log10 of the molar value.

Report pIC50 for Cc1cc(C(=O)Nc2ccc(S(C)(=O)=O)cc2)c(C)n1-c1ccccc1C(=O)Nc1cccc([N+](=O)[O-])c1 please.
6.00 to 6.30

Report pIC50 for Cc1cc(C(=O)Nc2ccc3ccccc3c2)c(C)n1-c1ccccc1C(F)(F)F please.
> 6.30

Report pIC50 for Cc1c(C(=O)Nc2ccc(S(C)(=O)=O)cc2)nn(C)c1-c1ccccc1C(F)(F)F please.
> 6.30

Report pIC50 for Cc1sc(C(=O)Nc2ccc(S(C)(=O)=O)cc2)c(C)c1-c1ccccc1C(F)(F)F please.
6.00 to 6.30

Report pIC50 for Cc1[nH]c(C(=O)Nc2ccc(S(C)(=O)=O)cc2)c(C)c1-c1ccccc1C(F)(F)F please.
> 6.30

====

# System: human MR (Homo sapiens)
# Sequence (P08235 671-984): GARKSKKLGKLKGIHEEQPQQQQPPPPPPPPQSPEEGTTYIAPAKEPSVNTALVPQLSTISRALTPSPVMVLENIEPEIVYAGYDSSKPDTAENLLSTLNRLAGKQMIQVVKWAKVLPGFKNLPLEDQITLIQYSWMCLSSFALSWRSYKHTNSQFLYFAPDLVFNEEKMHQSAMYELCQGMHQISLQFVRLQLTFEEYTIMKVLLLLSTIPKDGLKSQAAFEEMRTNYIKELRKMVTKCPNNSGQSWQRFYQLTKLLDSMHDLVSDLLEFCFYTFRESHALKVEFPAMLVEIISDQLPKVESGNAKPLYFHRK
pIC50: −log10 of the molar value.
Assay Readout: pIC50

Below, each entry is followed by its recorded pIC50 result.
Cc1cc(C(=O)Nc2ccc(S(C)(=O)=O)cc2)c(C)n1-c1cccc2ccccc12
> 6.30
COc1cc(NC(=O)c2cc(C)n(-c3ccccc3C(F)(F)F)c2C)ccc1S(N)(=O)=O
> 6.30
Cc1c(C(=O)Nc2ccc(S(C)(=O)=O)cc2)cc(-c2ccc(F)cc2)n1-c1ccccc1C(F)(F)F
> 6.30
Cc1nc(C(=O)Nc2ccc(S(C)(=O)=O)cc2)n(C)c1-c1ccccc1Oc1ccccc1
> 6.30

Report pIC50 for Cc1ccc(NC(=O)c2cc(C)n(-c3ccccc3C(F)(F)F)c2C)cc1F please.
6.00 to 6.30

Report pIC50 for Cc1cc(C(=O)Nc2ccc(S(=O)(=O)NC(=N)N)cc2)c(C)n1-c1ccccc1C(F)(F)F please.
5.30 to 6.00

Report pIC50 for Cc1c(C(=O)Nc2ccc(S(N)(=O)=O)cc2)cn(C)c1-c1ccccc1C(F)(F)F please.
> 6.30

Report pIC50 for Cc1cc(C(=O)Nc2ccc(S(C)(=O)=O)cc2)c(C)n1-c1ccc(NC(=O)c2ccc(C(F)(F)F)cc2C(F)(F)F)cc1C(F)(F)F please.
5.30 to 6.00

Report pIC50 for Cc1cc(C(=O)Nc2ccc(S(N)(=O)=O)cc2)c(C)n1-c1ccccc1C(F)(F)F please.
> 6.30
